Reference for the values: patent US20200247894A1

assayed target: T1, Macaca fascicularis IL2Rγ extracellular domain expressed with a C-terminal myc-myc-hexahistidine tag (Macaca fascicularis)
T1 construct: also called mfIL-2Rg-MMH; mfIL-2RG-MMH
T1 chain: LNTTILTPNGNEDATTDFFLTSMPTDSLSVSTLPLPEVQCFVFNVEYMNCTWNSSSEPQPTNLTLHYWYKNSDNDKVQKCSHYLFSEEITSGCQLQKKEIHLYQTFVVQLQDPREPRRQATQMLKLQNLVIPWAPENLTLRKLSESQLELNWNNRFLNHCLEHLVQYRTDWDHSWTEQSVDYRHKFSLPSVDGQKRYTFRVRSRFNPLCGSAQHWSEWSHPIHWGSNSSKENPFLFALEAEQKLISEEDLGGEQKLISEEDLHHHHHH
measurement description: SPR, captured mAb, 25C, dissociation pH 6.0
# maps each entry to its koff
recorded endpoint: koff

binder="H4H13538P (antibody, human IgG4 S228P, kappa, V domains shown, anti-IL2Rgamma mAb expressed with human IgG4 Fc) VH: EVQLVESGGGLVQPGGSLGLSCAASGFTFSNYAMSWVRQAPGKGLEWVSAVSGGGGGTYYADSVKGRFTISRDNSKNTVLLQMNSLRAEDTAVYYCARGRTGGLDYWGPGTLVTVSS VL: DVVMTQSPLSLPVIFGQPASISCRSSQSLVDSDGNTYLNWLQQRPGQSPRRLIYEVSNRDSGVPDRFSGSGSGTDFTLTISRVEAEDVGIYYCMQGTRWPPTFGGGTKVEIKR" result="0.000439 s⁻¹"
binder="H4H12858P (antibody, human IgG4 S228P, kappa, V domains shown, anti-IL2Rgamma mAb expressed with human IgG4 Fc; also called REGN9433) VH: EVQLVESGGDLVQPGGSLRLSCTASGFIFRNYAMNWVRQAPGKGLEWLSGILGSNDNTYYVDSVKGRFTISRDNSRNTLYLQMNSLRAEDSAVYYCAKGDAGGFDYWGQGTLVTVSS VL: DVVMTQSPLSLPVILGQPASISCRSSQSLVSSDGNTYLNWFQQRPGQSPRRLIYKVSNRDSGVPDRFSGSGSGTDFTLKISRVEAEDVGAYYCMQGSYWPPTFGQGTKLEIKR" result="0.000385 s⁻¹"
binder="H4H12889P (antibody, human IgG4 S228P, kappa, V domains shown, anti-IL2Rgamma mAb expressed with human IgG4 Fc; also called REGN7257) VH: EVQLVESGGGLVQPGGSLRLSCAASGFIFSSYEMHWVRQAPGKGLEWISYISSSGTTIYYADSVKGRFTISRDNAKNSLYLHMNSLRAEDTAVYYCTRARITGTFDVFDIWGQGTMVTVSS VL: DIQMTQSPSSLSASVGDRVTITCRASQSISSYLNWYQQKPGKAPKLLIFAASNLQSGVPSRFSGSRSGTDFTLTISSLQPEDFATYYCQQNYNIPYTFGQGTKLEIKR" result="0.000434 s⁻¹"
binder="H4H12863P (antibody, human IgG4 S228P, kappa, V domains shown, anti-IL2Rgamma mAb expressed with human IgG4 Fc) VH: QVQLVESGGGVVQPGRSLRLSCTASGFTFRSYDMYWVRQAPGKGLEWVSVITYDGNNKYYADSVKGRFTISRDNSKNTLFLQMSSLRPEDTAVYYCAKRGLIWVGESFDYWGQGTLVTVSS VL: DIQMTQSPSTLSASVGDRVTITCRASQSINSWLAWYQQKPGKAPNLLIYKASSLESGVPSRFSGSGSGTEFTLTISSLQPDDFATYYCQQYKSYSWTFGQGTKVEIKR" result="0.000761 s⁻¹"
binder="H4H12874P (antibody, human IgG4 S228P, kappa, V domains shown, anti-IL2Rgamma mAb expressed with human IgG4 Fc) VH: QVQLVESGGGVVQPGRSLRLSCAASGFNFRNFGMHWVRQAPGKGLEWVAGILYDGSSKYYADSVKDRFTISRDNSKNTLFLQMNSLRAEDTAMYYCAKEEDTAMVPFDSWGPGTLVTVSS VL: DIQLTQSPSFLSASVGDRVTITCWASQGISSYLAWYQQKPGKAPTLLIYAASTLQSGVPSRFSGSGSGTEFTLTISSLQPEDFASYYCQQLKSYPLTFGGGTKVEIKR" result="0.000729 s⁻¹"
binder="H4H13541P (antibody, human IgG4 S228P, kappa, V domains shown, anti-IL2Rgamma mAb expressed with human IgG4 Fc) VH: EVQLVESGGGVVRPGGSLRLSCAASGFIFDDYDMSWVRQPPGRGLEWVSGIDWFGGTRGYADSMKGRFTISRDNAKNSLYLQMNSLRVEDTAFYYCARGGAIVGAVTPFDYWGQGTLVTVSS VL: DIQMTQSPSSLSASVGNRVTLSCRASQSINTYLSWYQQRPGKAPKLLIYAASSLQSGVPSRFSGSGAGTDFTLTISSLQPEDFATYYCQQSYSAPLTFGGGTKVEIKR" result="0.000497 s⁻¹"
